Experiment: in vitro
Conditions: human, hepatocytes
recorded-endpoint: hepatocyte CLint at 1 ug/mL (µL/min/1e6 cells)

// below: answered compounds
[
  {
    "compound": "CCN/C(=N\\S(=O)(=O)c1cccc(Cl)c1)N1CC2(C=N1)CCNCC2",
    "unit-of-measurement": "µL/min/1e6 cells",
    "hepatocyte CLint at 1 ug/mL": 3
  },
  {
    "compound": "CCN/C(=N\\S(=O)(=O)c1cccc(C(F)(F)F)c1)N1CC(CC)C=N1 (stereo unspecified)",
    "unit-of-measurement": "µL/min/1e6 cells",
    "hepatocyte CLint at 1 ug/mL": 27
  },
  {
    "compound": "CCN/C(=N\\S(=O)(=O)c1cccc(Cl)c1F)N1CC(CC)C=N1 (stereo unspecified)",
    "unit-of-measurement": "µL/min/1e6 cells",
    "hepatocyte CLint at 1 ug/mL": 36
  },
  {
    "compound": "CCN/C(=N\\S(=O)(=O)c1cccc(C)c1)N1CC(CC)C=N1 (stereo unspecified)",
    "unit-of-measurement": "µL/min/1e6 cells",
    "hepatocyte CLint at 1 ug/mL": 51
  }
]

P = CCN/C(=N\S(=O)(=O)c1cccc(Cl)c1)N1N=CCC1c1ccncc1 (racemic)
Q = CCN=C(NS(=O)(=O)c1cccc(Cl)c1)N1N=CC[C@H]1c1ccccc1
input: // which entry has the larger hepatocyte CLint at 1 ug/mL value, P or Q ? Pick one and reply with its label.
output: Q

* * *

Molecular target: 5-hydroxytryptamine receptor 2C (Homo sapiens)
Sequence (P28335 whole entry): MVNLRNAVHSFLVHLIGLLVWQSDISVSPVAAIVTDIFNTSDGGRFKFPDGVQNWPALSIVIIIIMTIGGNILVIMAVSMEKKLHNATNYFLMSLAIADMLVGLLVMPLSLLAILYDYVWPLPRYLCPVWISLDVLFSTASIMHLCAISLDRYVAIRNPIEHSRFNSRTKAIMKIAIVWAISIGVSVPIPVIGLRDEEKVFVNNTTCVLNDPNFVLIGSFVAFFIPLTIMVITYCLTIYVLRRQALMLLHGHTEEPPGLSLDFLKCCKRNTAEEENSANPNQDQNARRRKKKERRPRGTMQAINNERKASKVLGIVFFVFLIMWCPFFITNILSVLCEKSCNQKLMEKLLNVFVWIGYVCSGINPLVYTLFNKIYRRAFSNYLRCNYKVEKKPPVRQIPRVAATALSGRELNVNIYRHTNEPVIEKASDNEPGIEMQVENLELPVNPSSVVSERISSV
pKi: −log10 of the molar value.
recorded-endpoint: pKi

input: Request the reported pKi associated with CCN/C(=N\S(=O)(=O)c1cccc(Cl)c1)N1N=CCC1c1ccccc1 (racemic)
output: < 6.00

* * *

Molecular target: UniProtKB P10635
Sequence (P10635 whole entry): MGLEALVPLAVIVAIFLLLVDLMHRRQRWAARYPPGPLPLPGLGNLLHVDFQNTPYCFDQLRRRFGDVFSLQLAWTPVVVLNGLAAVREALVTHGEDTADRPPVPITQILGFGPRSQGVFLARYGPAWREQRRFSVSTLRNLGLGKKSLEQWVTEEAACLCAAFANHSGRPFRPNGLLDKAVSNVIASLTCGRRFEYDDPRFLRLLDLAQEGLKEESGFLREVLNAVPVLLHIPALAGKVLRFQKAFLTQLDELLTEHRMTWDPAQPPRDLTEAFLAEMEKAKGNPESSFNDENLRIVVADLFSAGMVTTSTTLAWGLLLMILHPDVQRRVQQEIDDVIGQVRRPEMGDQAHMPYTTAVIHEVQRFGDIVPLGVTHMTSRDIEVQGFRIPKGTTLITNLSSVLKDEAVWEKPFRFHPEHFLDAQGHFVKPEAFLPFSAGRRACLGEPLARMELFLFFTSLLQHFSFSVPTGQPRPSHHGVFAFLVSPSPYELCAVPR
pIC50: −log10 of the molar value.
recorded-endpoint: pIC50

input: Notebook: pull reported pIC50 for UniProtKB P10635, entry CCN/C(=N\S(=O)(=O)c1cccc(Cl)c1)N1CC(C)(C)C=N1
output: < 5.00

* * *

Test: Fraction unbound in rat brain homogenate at 1 uM after 6 hrs by […]
Format: ADME, tissue-based
recorded-endpoint: fraction unbound at 6 h, 1 µM
Field format: numeric only.

input: Request the reported fraction unbound at 6 h, 1 µM associated with CCN/C(=N\S(=O)(=O)c1cccc(Cl)c1)N1CC(C)(C)C=N1
output: 0.01

* * *

Assay: Plasma protein binding in rat at 5 uM by LC/MS/MS analysis
Type: ADME, cell-free
Conditions: read-out: PPB (converted)
recorded-endpoint: fraction unbound at 5 µM
Field format: numeric only.

input: Request the reported fraction unbound at 5 µM associated with CCN/C(=N\S(=O)(=O)c1cccc(Cl)c1)N1CC2(C=N1)CCNCC2
output: 0.41

* * *

Experiment: Plasma protein binding in human at 5 uM by LC/MS/MS analysis
Type: ADME, cell-free
Conditions: read-out: PPB (converted)
recorded-endpoint: fraction unbound at 5 µM

[
  {
    "compound-structure-string": "CCN/C(=N\\S(=O)(=O)c1cccc(Cl)c1)N1CC(C)(C)C=N1",
    "recorded-endpoint": "fraction unbound at 5 µM",
    "reading": 0.37
  },
  {
    "compound-structure-string": "CCN/C(=N\\S(=O)(=O)c1cccc(Cl)c1)N1CC2(C=N1)CCNCC2",
    "recorded-endpoint": "fraction unbound at 5 µM",
    "reading": 0.34
  }
]

* * *

Molecular target: 5-hydroxytryptamine receptor 1A (Homo sapiens, UniProt P08908)
Sequence (P08908 whole entry): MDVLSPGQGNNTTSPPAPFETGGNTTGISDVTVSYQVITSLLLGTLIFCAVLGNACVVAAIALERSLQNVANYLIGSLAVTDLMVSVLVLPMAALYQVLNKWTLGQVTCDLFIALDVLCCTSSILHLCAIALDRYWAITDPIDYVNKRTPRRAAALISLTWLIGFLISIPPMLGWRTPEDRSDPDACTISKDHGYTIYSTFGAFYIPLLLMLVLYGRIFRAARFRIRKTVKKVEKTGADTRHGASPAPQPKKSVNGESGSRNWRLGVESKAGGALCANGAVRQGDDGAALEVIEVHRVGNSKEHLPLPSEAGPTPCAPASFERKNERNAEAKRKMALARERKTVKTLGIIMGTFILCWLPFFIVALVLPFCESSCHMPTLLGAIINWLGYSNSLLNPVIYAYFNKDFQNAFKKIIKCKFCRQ
Assay: Inhibition of human 5-HT1A receptor
Conditions: read-out: Ki
recorded-endpoint: Ki

[
  {
    "molecule": "CCN/C(=N\\S(=O)(=O)c1cccc(Cl)c1)N1CC(CC)C=N1 (racemic)",
    "assayed-target": "5-hydroxytryptamine receptor 1A (Homo sapiens, UniProt P08908)",
    "reading": "> 1000 nM"
  }
]

Now for a further molecule.
input: Request the reported Ki associated with CCN/C(=N\S(=O)(=O)c1cccc(Cl)c1)N1N=CCC1c1ccccc1 (racemic)
output: > 1000 nM

* * *

Test: Tmax in Wistar rat
Assay type: ADME, organism-based
Conditions: in vivo
recorded-endpoint: Tmax (min)
Answer with a number only, understood to be in min.

input: Request the reported Tmax associated with CCN/C(=N\S(=O)(=O)c1cccc(Cl)c1)N1CC(C)(C)C=N1
output: 30

* * *

// Voltage-gated inwardly rectifying potassium channel KCNH2 (Homo sapiens) IC50 records

[
  {
    "compound": "CCN/C(=N\\S(=O)(=O)c1cccc(Cl)c1)N1CC(C)(C)C=N1",
    "IC50": "> 10 µM"
  },
  {
    "compound": "CCN/C(=N\\S(=O)(=O)c1cccc(Cl)c1)N1CC2(C=N1)CCNCC2",
    "IC50": "7.94 µM"
  }
]

input: Notebook: pull reported IC50 for Voltage-gated inwardly rectifying potassium channel KCNH2 (Homo sapiens), entry CCN/C(=N\S(=O)(=O)c1cccc(Cl)c1)N1N=CCC1c1ccccc1 (racemic)
output: > 10 µM

* * *

Test: in vitro
Details: human, hepatocytes
recorded-endpoint: hepatocyte CLint at 1 ug/mL (µL/min/1e6 cells)

[
  {
    "compound": "CCN=C(NS(=O)(=O)c1cccc(Cl)c1)N1N=CCC1c1ccc(F)cc1 (racemic)",
    "reading": 107
  },
  {
    "compound": "CCN/C(=N\\S(=O)(=O)c1ccc(Cl)c(Cl)c1)N1CC(CC)C=N1 (stereo not given)",
    "reading": 92
  },
  {
    "compound": "CCN/C(=N\\S(=O)(=O)c1cccc(Cl)c1)N1N=CCC1c1ccco1 (racemic)",
    "reading": 92
  }
]

I = CCN/C(=N\S(=O)(=O)c1cccc(Cl)c1)N1N=CCC1c1ccccc1 (racemic)
II = CCN/C(=N\S(=O)(=O)c1c(Cl)nc2sccn12)N1CC(CC)C=N1 (stereo not given)
input: Lower value for measured hepatocyte CLint at 1 ug/mL? Options: I , II Pick one and reply with its label.
output: II

* * *

// 5-hydroxytryptamine receptor 6 (Homo sapiens) pKi records
pKi: −log10 of the molar value.
recorded-endpoint: pKi

[
  {
    "compound": "CCN/C(=N\\S(=O)(=O)c1cccc(Cl)c1)N1CC(C)C=N1 (stereo not drawn)",
    "pKi": 8.10
  },
  {
    "compound": "CCN/C(=N\\S(=O)(=O)c1ccccc1)N1CC(CC)C=N1 (stereo not drawn)",
    "pKi": 7.47
  },
  {
    "compound": "CCN/C(=N\\S(=O)(=O)c1cccc(Cl)c1)N1CC(CC)(CC)C=N1",
    "pKi": 7.30
  }
]

P = CCC1C=NN(/C(=N/S(=O)(=O)c2ccccc2Cl)NCc2ccccc2)C1 (stereo not drawn)
Q = CCN/C(=N\S(=O)(=O)c1cccc(Cl)c1)N1CCC=N1
R = CCN/C(=N\S(=O)(=O)c1cccc(Cl)c1)N1CC2(C=N1)CCCCC2
input: Order the records, beginning with the lowest pKi and ending with the highest. A complete answer lists every label in the requested sequence.
output: P, Q, R
(P: 7.04, Q: 7.47, R: 8.28)

I = CCN/C(=N\S(=O)(=O)c1c(Cl)nc2sccn12)N1CC(CC)C=N1 (stereo not drawn)
II = CCN/C(=N\S(=O)(=O)c1ccc2ccccc2c1)N1CC(CC)C=N1 (stereo not drawn)
input: // which entry has the larger pKi value, I or II ? Pick one and reply with its label.
output: I

* * *

Assay: in vitro
Conditions: human, hepatocytes
recorded-endpoint: hepatocyte CLint at 1 ug/mL (µL/min/1e6 cells)

// below: answered compounds
[
  {
    "compound": "CCN/C(=N\\S(=O)(=O)c1cccc(OC)c1)N1CC(CC)C=N1 (stereo not given)",
    "hepatocyte CLint at 1 ug/mL [µL/min/1e6 cells]": 46
  },
  {
    "compound": "CCN/C(=N\\S(=O)(=O)c1ccc2ccccc2c1)N1CC(CC)C=N1 (stereo not given)",
    "hepatocyte CLint at 1 ug/mL [µL/min/1e6 cells]": 41
  },
  {
    "compound": "CCN/C(=N\\S(=O)(=O)c1ccccc1Cl)N1CC(CC)C=N1 (stereo not given)",
    "hepatocyte CLint at 1 ug/mL [µL/min/1e6 cells]": 39
  }
]

1 = CCN/C(=N\S(=O)(=O)c1ccc(S(C)(=O)=O)cc1)N1CC(CC)C=N1 (stereo not given)
2 = CCN/C(=N\S(=O)(=O)c1c(C)nn(C)c1Cl)N1CC(CC)C=N1 (stereo not given)
input: // which entry has the larger hepatocyte CLint at 1 ug/mL value, 1 or 2 ? Pick one and reply with its label.
output: 2
(2: 11 µL/min/1e6 cells, 1: 4 µL/min/1e6 cells)
